Attribute Measured: boiling point (°C)
// units = °C; emit number, no label

Would you please look over these solved cases?
>>> experimental_value("C=C(C)CC(C)=O")
124
>>> experimental_value("c1ccc(NNc2ccccc2)cc1")
309
>>> experimental_value("CC(=O)c1ccccc1")
202
>>> experimental_value("Cc1cn(C)c2ccccc12")
258
>>> experimental_value("C=CCC1CCCCC1")
132

// boiling point lookup, key: CN(C)CN(C)C
83

State the recorded boiling point for this entry: CCCCCCCOC(C)=O
193

State the recorded boiling point for this entry: CCCCNCCCC
160

Data request, read-out boiling point, for N#Cc1ccccc1C(F)(F)F
205

Item C1CCCCC1 has what recorded boiling point?
80.7

Cited source for all entries: the OPERA property sets (Mansouri et al. 2018)
